Each record here notes measured z-score.
- method_description: modulators of HCV replicon luciferase signal, primary screen, HCV replication inhibitor project, Huh7 cells, luciferase reporter (AID 1109);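 also: huh7 hepatoma cells harbouring a luciferase neomycin HCV replicon reporter; luciferase luminescence as measure of HCV replicon replication; test concentration not given here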
- condition_info: 48 h, higher = more signal

given_smiles: O=C1N(Cc2ccccc2)c2ccccc2C[C@@]12N=C(c1ccc(OCCCO)cc1)O[C@H]2c1ccccc1
z-score: -3.11

given_smiles: CCCC=C(CCC)[C@@H](NC(=O)c1ccc(C(=O)OC)cc1)c1ccc(C(=O)OC)cc1
z-score: -0.682

given_smiles: COCCCNC(=O)[C@@]1(CCC(=O)OC(C)(C)C)N=C(c2ccc(OCCCO)cc2)O[C@H]1c1ccccc1
z-score: -0.618

given_smiles: COC(=O)[C@@]1(Cc2ccc(F)cc2)[C@H]2c3cc(C(=O)N4CCCC4)n(CCc4c[nH]c5cc(F)ccc45)c3C[C@H]2CN1C(=O)c1ccccc1
z-score: -1.62

given_smiles: COCCOC(=O)N1C(=O)[C@@]2(c3cc(C#CCC(C(=O)OC)C(=O)OC)ccc31)[C@H](C(=O)N1CCc3cc(OC)c(OC)cc3C1)[C@H]1C(=O)O[C@H](c3ccccc3)[C@H](c3ccccc3)N1[C@@H]2c1ccccc1OCCO
z-score: -1.61

given_smiles: CC(C)[Si](C#Cc1ccccc1)(O[C@H](c1ccccc1)c1cn(Cc2ccccc2)nn1)C(C)C
z-score: 0.167

given_smiles: Cc1ccc(S[C@]2(C(=O)NC3CC3)CC(=O)N(C3Cc4ccccc4C3)[C@@H]2c2ccc(CO)cc2I)cc1
z-score: -2.14
